Tested on: SNB-19
assay-notes: NCI tumour cell line growth inhibition, 48 h
Calls of active or inactive are those of the source. Rule as the data show it: active = GI50 up to about 1.1 µM and inactive = higher.
Measured GI50 of individual entries
measured-attribute: GI50

• Cc1cc(NCCCCCCCCCC[n+]2c(C)cc(N)c3ccccc32)c2ccccc2n1 = 0.427 µM (active)
• Cc1cc(Cl)ccc1N1C(=O)C(=O)C(c2nc3ccccc3s2)/C(=N\NC(=O)c2ccccc2O)C1=O (stereo unspecified) = > 100 µM (inactive)
• COC(=O)c1cc2c(cc1Cl)Sc1nnc(Nc3ccccc3)n1S2(=O)=O = 2.28 µM (inactive)
• NC1(C(=O)OCc2ccccc2)CCCC1 = 21.2 µM (inactive)
• O=C1C2SC34c5c2c2ccccc2n5CCC3CCCN14 (stereo unspecified) = 62.4 µM (inactive)
• CCNCCNC(=O)c1ccc(Br)cc1 = > 100 µM (inactive)
